Test system: T47D
Assay: NCI tumour cell line growth inhibition, 48 h
Activity calls are given as the source filed them. No stated cut-off is given here; in the data, active = GI50 up to about 1.1 µM and inactive = higher.
Property name: GI50

1. Cc1ccc(Sc2ccccc2C23OC(C)(C4C(=O)N(c5ccccc5)C(=O)C42)N(C)C3=O)cc1 (stereo unspecified) = > 100 µM (inactive)
2. CN(C)CS/C(N)=N\C(O)C(Cl)(Cl)Cl (stereo unspecified) = > 100 µM (inactive)
3. O=C(CC(C(=O)c1cccs1)c1ccsc1)c1ccco1 (stereo unspecified) = 24.7 µM (inactive)
4. O=C(O)CCC1NC(/C(=C/c2ccccc2O)NC(=O)c2ccccc2)OC1=O (stereo unspecified) = 16 µM (inactive)
5. CC1(C)C=C(S(=O)(=O)c2ccccc2)Oc2ccccc2O1 = 19.8 µM (inactive)
6. CCCCI(O)OS(=O)(=O)c1ccc(C)cc1 = > 100 µM (inactive)
7. C[n+]1c(-c2ccc(/C=N\N3CCN(/N=C/c4ccc(-c5cn6ccccc6[n+]5C)cc4)CC3)cc2)cn2ccccc21 = 34.9 µM (inactive)
8. CO/N=C(/C(=O)OC)c1ccccc1COc1ccccc1C(F)(F)F = 25.2 µM (inactive)
9. CCN(CC)N1C(=O)[N-][N+](CC)(CC)C1=O = > 100 µM (inactive)
10. COc1cccc2cc(C(N)=O)c(=N)oc12 = 37.3 µM (inactive)
11. C1#Cc2ccccc2OCCOc2ccccc2C#Cc2ccccc2OCCOc2ccccc21 = 49.5 µM (inactive)
